System: Plasmodium berghei
Assay: Luciferase/luciferin-expressing antifolate-resistant parasites were used to infect a culture of HepG2 cells that were pre-incubated with compounds. Infected hepatocytes emit light due to the luciferase reaction. Assay results are presented as the percent inhibition of light emission compared to control. […]
Assay type: functional
Details: sporozoite, read-out: LUCIFERASE INFECTION ASSAY - IC50
endpoint_name: IC50

A selection of reference data follows.
>  <compound>
COc1ccccc1Oc1ccc(C(F)(F)F)cc1NC(=O)c1sc2ccccc2c1Cl

>  <endpoint_name>
IC50

>  <value_measured>
> 6.91 µM

$$$$
>  <compound>
Cc1cccc(C)c1NC(=O)CSc1nc(=O)c2c(C)c(-c3ccccc3)sc2[nH]1

>  <endpoint_name>
IC50

>  <value_measured>
> 10 µM

$$$$

Input: Indicate its recorded IC50; the molecule in question is CN(NS(=O)(=O)c1ccc(Cl)cc1)c1cnn(C)c(=O)c1Cl
Output: > 9.09 µM

Input: Indicate its recorded IC50; the molecule in question is O=C(c1cc(C(=O)N2CCCC2)c2nc3scc(-c4ccccc4)c3c(=O)n2c1)c1ccccc1O
Output: > 10 µM

Input: Indicate its recorded IC50; the molecule in question is CNc1nc2cnc(Nc3cccc(C(C)=O)c3)cc2n1-c1cccc(F)c1
Output: > 10 µM

----------
System: Plasmodium berghei
Assay: Luciferase/luciferin-expressing antifolate-resistant parasites were used to infect a culture of HepG2 cells that were pre-incubated with compounds. Infected hepatocytes emit light due to the luciferase reaction. Assay results are presented as the percent inhibition of light emission compared to control. […]
Type: functional
Settings: sporozoite, PBLUC_HILL_SLOPE 3.24, PBLUC_R_SQUARED 0.794, read-out: LUCIFERASE INFECTION ASSAY - IC50
endpoint_name: pIC50
Please note pIC50 is a logarithmic value: minus log10 of concentration in mol/L. Answer with that number alone.

Input: Indicate its recorded pIC50; the molecule in question is Cc1nn(-c2ccccc2Cl)c(Cl)c1/C=N/Nc1ccccc1Cl
Output: 5.43

----------
Test system: Plasmodium berghei
Test: Luciferase/luciferin-expressing antifolate-resistant parasites were used to infect a culture of HepG2 cells that were pre-incubated with compounds. Infected hepatocytes emit light due to the luciferase reaction. Assay results are presented as the percent inhibition of light emission compared to control. […]
Type: functional
Conditions: sporozoite, FFLUC_HILL_SLOPE 15, FFLUC_R_SQUARED 0.447, HEPG2TOX_HILL_SLOPE 15.3, HEPG2TOX_R_SQUARED 0.806, PBLUC_HILL_SLOPE 8.27, PBLUC_R_SQUARED 0.505, read-out: LUCIFERASE INFECTION ASSAY - IC50
endpoint_name: pIC50
Please note pIC50 is a logarithmic value: minus log10 of concentration in mol/L. Answer with that number alone.

Input: Indicate its recorded pIC50; the compound in question is N#Cc1ccc(/C=C(\c2nc3ccccc3[nH]2)c2nc3ccccc3s2)cc1
Output: 5.93

----------
System: Plasmodium berghei
Assay: Luciferase/luciferin-expressing antifolate-resistant parasites were used to infect a culture of HepG2 cells that were pre-incubated with compounds. Infected hepatocytes emit light due to the luciferase reaction. Assay results are presented as the percent inhibition of light emission compared to control. […]
Type: functional
Conditions: sporozoite, HEPG2TOX_HILL_SLOPE 11.1, HEPG2TOX_R_SQUARED 0.969, PBLUC_HILL_SLOPE 0.201, PBLUC_R_SQUARED 0.0877, read-out: LUCIFERASE INFECTION ASSAY - IC50
endpoint_name: IC50

Input: Indicate its recorded IC50; the compound in question is N#CC(C#N)=NNc1ccc(OC(F)(F)F)cc1
Output: 245 nM

----------
System: Plasmodium berghei
Assay: Luciferase/luciferin-expressing antifolate-resistant parasites were used to infect a culture of HepG2 cells that were pre-incubated with compounds. Infected hepatocytes emit light due to the luciferase reaction. Assay results are presented as the percent inhibition of light emission compared to control. […]
Type: functional
Conditions: sporozoite, HEPG2TOX_HILL_SLOPE 1.87, HEPG2TOX_R_SQUARED 0.892, read-out: LUCIFERASE INFECTION ASSAY - IC50
endpoint_name: IC50

Input: Indicate its recorded IC50; the molecule in question is COc1cc(C)ccc1Oc1nc2cc(C)nn2c2ccccc12
Output: > 10 µM

----------
Test system: Plasmodium berghei
Experiment: Luciferase/luciferin-expressing antifolate-resistant parasites were used to infect a culture of HepG2 cells that were pre-incubated with compounds. Infected hepatocytes emit light due to the luciferase reaction. Assay results are presented as the percent inhibition of light emission compared to control. […]
Assay type: functional
Details: sporozoite, FFLUC_HILL_SLOPE 16.2, FFLUC_R_SQUARED 0.412, read-out: LUCIFERASE INFECTION ASSAY - IC50
pIC50: −log10 of the molar value.
endpoint_name: pIC50

Input: Indicate its recorded pIC50; the compound in question is Cc1nc(SCC(=O)Nc2nc(Br)sc2Cc2ccc([N+](=O)[O-])cc2)sc1Cc1ccccc1
Output: < 5.00

----------
Tested on: Plasmodium berghei
Assay: Luciferase/luciferin-expressing antifolate-resistant parasites were used to infect a culture of HepG2 cells that were pre-incubated with compounds. Infected hepatocytes emit light due to the luciferase reaction. Assay results are presented as the percent inhibition of light emission compared to control. […]
Type: functional
Conditions: sporozoite, HEPG2TOX_HILL_SLOPE 1.35, HEPG2TOX_R_SQUARED 0.878, PBLUC_HILL_SLOPE 2.2, PBLUC_R_SQUARED 0.804, read-out: LUCIFERASE INFECTION ASSAY - IC50
endpoint_name: pIC50
Please note pIC50 is a logarithmic value: minus log10 of concentration in mol/L. Answer with that number alone.

Input: Provide pIC50, system Plasmodium berghei, entry O=C1NC(c2c(-c3ccccc3)[nH]c3ccccc23)Nc2ccccc21 (stereo unspecified)
Output: 6.35

----------
System: Plasmodium berghei
Test: Luciferase/luciferin-expressing antifolate-resistant parasites were used to infect a culture of HepG2 cells that were pre-incubated with compounds. Infected hepatocytes emit light due to the luciferase reaction. Assay results are presented as the percent inhibition of light emission compared to control. […]
Type: functional
Conditions: sporozoite, FFLUC_HILL_SLOPE 16.3, FFLUC_R_SQUARED 0.684, PBLUC_HILL_SLOPE 0.824, PBLUC_R_SQUARED 0.804, read-out: LUCIFERASE INFECTION ASSAY - IC50
endpoint_name: IC50 (µM)
Number only, in µM; omit the unit.

Input: Indicate its recorded IC50; the compound in question is CCC(C)c1ccc(NC(=O)c2ccc[nH]c2=S)cc1 (stereo unspecified)
Output: 7.03

----------
System: Plasmodium berghei
Experiment: Luciferase/luciferin-expressing antifolate-resistant parasites were used to infect a culture of HepG2 cells that were pre-incubated with compounds. Infected hepatocytes emit light due to the luciferase reaction. Assay results are presented as the percent inhibition of light emission compared to control. […]
Assay type: functional
Conditions: sporozoite, HEPG2TOX_HILL_SLOPE 1.9, HEPG2TOX_R_SQUARED 0.409, PBLUC_HILL_SLOPE 1.49, PBLUC_R_SQUARED 0.155, read-out: LUCIFERASE INFECTION ASSAY - IC50
endpoint_name: IC50

Input: Indicate its recorded IC50; the compound in question is Cn1cc(-c2cnc3cnc(-c4ccsc4)cn23)cn1
Output: > 11.7 µM

----------
Test system: Plasmodium berghei
Assay: Luciferase/luciferin-expressing antifolate-resistant parasites were used to infect a culture of HepG2 cells that were pre-incubated with compounds. Infected hepatocytes emit light due to the luciferase reaction. Assay results are presented as the percent inhibition of light emission compared to control. […]
Type: functional
Details: sporozoite, HEPG2TOX_HILL_SLOPE 5.76, HEPG2TOX_R_SQUARED 0.476, PBLUC_HILL_SLOPE 1.87, PBLUC_R_SQUARED 0.581, read-out: LUCIFERASE INFECTION ASSAY - IC50
endpoint_name: IC50 (µM)
Number only, in µM; omit the unit.

Input: Provide IC50, system Plasmodium berghei, entry C(=N\Nc1nc2ccccc2[nH]1)/c1sc(N2CCCCC2)nc1-c1cccs1
Output: 6.38

----------
System: Plasmodium berghei
Assay: Luciferase/luciferin-expressing antifolate-resistant parasites were used to infect a culture of HepG2 cells that were pre-incubated with compounds. Infected hepatocytes emit light due to the luciferase reaction. Assay results are presented as the percent inhibition of light emission compared to control. […]
Assay type: functional
Settings: sporozoite, HEPG2TOX_HILL_SLOPE 33, HEPG2TOX_R_SQUARED 0.912, PBLUC_HILL_SLOPE 70.8, PBLUC_R_SQUARED 0.26, read-out: LUCIFERASE INFECTION ASSAY - IC50
endpoint_name: IC50 (µM)
Number only, in µM; omit the unit.

Input: Indicate its recorded IC50; the molecule in question is O=C(Cn1ncc(Cl)c(Cl)c1=O)N(CCc1ccccc1)Cc1ccccc1
Output: 6.18
